Please provide measured TGI for the entries that follow.
# System: HOP-92 NSCLC
# methodNotes: NCI tumour cell line growth inhibition, 48 h

# example entries with known answers
For record C[C@@H]1C[C@@H](O)[C@@]2(O)C13CC(=O)OC(C3)[C@@H](C)[C@@]2(C)CO (some centres undefined) the listed TGI is > 100 µM

For record CC(C)CC(CNC(Cc1ccc(Cl)cc1)C(N)=O)NC(=O)C(Cc1cnc[nH]1)NC(=O)CNC(=O)C(NC(=O)C(C)NC(=O)C(Cc1c[nH]c2ccccc12)NC(=O)C(CCC(=O)O)NC(=O)C(N)Cc1ccccc1)C(C)C (centres undefined) the listed TGI is < 0.0133 µM

For record COc1ccc(OC)c(-c2cc(-c3ccccc3)nn2-c2ccc(S(N)(=O)=O)cc2)c1 the listed TGI is 50.1 µM

For record CCCCN(CCCC)CC(C)(C)C(O)c1ccc(OC)c2ccccc12 (centres undefined) the listed TGI is 8.81 µM

For each of the compounds below, note its TGI.
1. COc1cc(C)cc2c1C(=O)C(Br)=CC2=O
2. CCCCOP(=O)(OCCCC)/C(C#N)=C/c1ccco1
3. O=[N+]([O-])c1cc(Cl)cc2c1nc(NCCO)c1ccccc12
4. O=C1C(Cl)=C(Nc2cccc(C(F)(F)F)c2)C(=O)N1Cc1ccccc1Cl
5. CS(=O)(=O)c1[nH]nc2[nH]c(=O)[nH]c(=O)c12

Response:
5.41 µM
> 100 µM
> 88 µM
28.4 µM
> 10 µM

---

# Test system: RXF 393 renal
# methodNotes: NCI tumour cell line growth inhibition, 48 h
Please provide measured TGI for the entries that follow.
Answers are plain numbers, in µM.

For record CC(=O)OCC1OC(n2c3c(c(-c4ccc(Cl)cc4)c(C#N)c2=S)C(=O)CC(C)(C)C3)C(OC(C)=O)C(OC(C)=O)C1OC(C)=O (configuration not stated) the listed TGI is 68.8

For record Oc1ccc(Br)cc1/C=N/NC(=S)NC12CC3CC(CC(C3)C1)C2 the listed TGI is 3.36

For record CN(C)c1ccc(/C=C2\N=C(N/N=C/c3ccccc3)NC2=O)cc1 the listed TGI is 70.4

For record CCCC(=O)NC(c1ccc2c(c1)OCO2)c1ccc2cccnc2c1O (configuration not stated) the listed TGI is 7.54

For record CC(C)C[C@H](NC(=O)CCc1ccccc1)B(O)O the listed TGI is 19.1

For record CN(C)CCNC(=O)c1cccc2nc3c4ccccc4c4ccccc4c3nc12 the listed TGI is 4.65

For record COc1ccc(NC(=O)c2sc3nc(C)c(C(O)c4ccc(OC)cc4)cc3c2N)cc1 (configuration not stated) the listed TGI is 2.99

For record Cc1ccc(C2SCc3nc4ccc(C(=O)c5ccccc5)cc4n32)cc1 (configuration not stated) the listed TGI is 70.3

Now for another entry.
For record COc1ccc(Nc2nc(N)c(C(=O)c3ccc(OC)cc3)s2)cc1 the listed TGI is 4.55

---

# Test system: SN12C renal
# methodNotes: NCI tumour cell line growth inhibition, 48 h; in the data active = GI50 below about 0.43 µM; inactive = the rest
Bench note: report the call from active, inactive

Some solved cases for reference:
Prompt: Recorded call for CCN(Cc1nc2cc(C(F)(F)F)ccc2nc1-c1ccccc1)c1ccc(OC)c(OC)c1 ?
Response: inactive

Prompt: Recorded call for COc1cc(C2CC(c3ccc4c(c3)OCO4)=NN2C(C)=O)cc(OC)c1OC (centres undefined) ?
Response: inactive

Prompt: Recorded call for Oc1ccc(/C=N/Nc2nc3ccccc3s2)c(O)c1 ?
Response: inactive

Prompt: Recorded call for CN1CCN(Cc2ccc(NC(=O)c3[nH]ncc3Nc3ncnc4sccc34)cc2)CC1 ?
Response: active

Prompt: Recorded call for O=C(CC1(O)C(=O)Nc2ccc(Br)cc21)c1ccc(C(=O)NCC2CCC3(CC2)OOC2(CCCCC2)OO3)cc1 (centres undefined) ?
Response: inactive

Further cases:
Prompt: Recorded call for C=CC[Se]C(=O)Cc1c(C)n(C(=O)c2ccc(Cl)cc2)c2ccc(OC)cc12 ?
Response: inactive

Prompt: Recorded call for COc1ccc(OC)c(-c2cc(-c3ccccc3)nn2-c2ccc(S(N)(=O)=O)cc2)c1 ?
Response: inactive
